- System: LOX IMVI melanoma
- Assay Procedure: NCI tumour cell line growth inhibition, 48 h
Measured Quantity: TGI

As a guide, the following entries are already answered.
Compound: CCN(Cc1ccccc1)c1ccc(/C=C2\COc3ccccc3C2=O)cc1
Tgt: LOX IMVI melanoma
TGI: > 1000 µM

Compound: COc1cc2c(cc1OCCCCCOc1ccc(-c3nc4ccccc4s3)cc1)N=C[C@@H]1CCCN1C2=O
Tgt: LOX IMVI melanoma
TGI: 4.37 µM

Compound: OC1CCN2Cc3ccccc3N=C12 (stereo unspecified)
Tgt: LOX IMVI melanoma
TGI: > 100 µM

Compound: Cc1cccc(-c2cc(=O)c3cccnc3[nH]2)c1
Tgt: LOX IMVI melanoma
TGI: > 100 µM

Data request: Can you look up the measured TGI of Cc1cccc(C)c1NC(=S)N/C=C(\C#N)C(N)=O for me?
Data returned: > 100 µM

Data request: Which TGI is reported for this compound? O=c1c2ccccc2c(=O)n2n1-c1cccc(c1)CSSCc1cccc-2c1
Data returned: > 100 µM

* * *

- Tested on: SK-MEL-28 melanoma
- Assay Procedure: NCI tumour cell line growth inhibition, 48 h
Measured Quantity: TGI

Reference set (2 entries):
Molecule: C=CC(=O)N1CCN([C@@H](CC2CC2)c2ccc([C@H](C)Nc3ncc4c(n3)N(CC)C(=O)OC4)cc2)CC1
TGI: 30.5 µM
--
Molecule: CCCCCCCCCCCCCOCCOCCOCCCCC(O)CCCCCCCCCC1=C[C@H](C)OC1=O (stereo partly specified)
TGI: 31.5 µM

Data request: Find TGI (SK-MEL-28 melanoma) for the entry CC(C)NC1CCCCC2c3ccccc3C12O (stereo unspecified)
Data returned: > 100 µM

Data request: Which TGI is reported with SK-MEL-28 melanoma for this entry: C=C1C(=O)O[C@@H]2C[C@@]3(C)CCC[C@H](C)C3=C[C@H]12 (tested in a mixture with another compound) ?
Data returned: 5.13 µM

Data request: Recorded TGI for COc1ccc(C2c3cc4c(cc3OC(N3CCOCC3)C2C)OCO4)cc1OC (stereo unspecified) with SK-MEL-28 melanoma, please?
Data returned: > 100 µM

Data request: Enter reported TGI observed with SK-MEL-28 melanoma for CCCCOC(=O)Nc1ccc(S(=O)(=O)Nc2c(Cl)cccc2Cl)cc1
Data returned: 81.5 µM

Data request: Return TGI measured with SK-MEL-28 melanoma given this molecule: CSC(=Nc1ccccc1)c1c(C)[nH]n(-c2ccccc2)c1=O
Data returned: > 100 µM

Data request: Query for SK-MEL-28 melanoma: what TGI does the record show for CN(C(=O)Cc1cc(Cl)c(Cl)cc1NC(=O)CCCN)[C@H]1CCCC[C@@H]1N1CCCC1 ?
Data returned: 33 µM

Data request: Checklist item: TGI tested on SK-MEL-28 melanoma, entry O=C(Nc1ccccc1/C=C/c1n[nH]c2ccccc12)c1ccccc1 , value?
Data returned: 17.7 µM

Data request: Entry CC(Nc1cccc(Cl)c1)c1ccncc1 (stereo unspecified) , system SK-MEL-28 melanoma: what TGI was measured?
Data returned: > 100 µM

* * *

- Tested on: HOP-18 NSCLC
- Assay Procedure: NCI tumour cell line growth inhibition, 48 h
Measured Quantity: TGI

Data request: Quick one: TGI of CC1=NC2(C(=O)O)C3(C(=O)O)N=C(C)OC3(C(F)(F)F)C2(C(F)(F)F)O1 (stereo not given) ?
Data returned: > 100 µM

Data request: Dear colleague, I am looking for the recorded TGI of the following compound: NCCNCCNCc1c2ccccc2c(CNCCNCCN)c2ccccc12
Data returned: > 100 µM

Data request: # query: TGI of entry [O-]c1ccccc1C=NCCN=Cc1ccccc1[O-].[O]=[U+2]=[O]
Data returned: > 77.1 µM

Data request: Value lookup for TGI; key = O=c1c2ccccc2c(=O)n2n1-c1cccc(c1)CSSCc1cccc-2c1
Data returned: > 100 µM

Data request: Dear colleague, I am looking for the recorded TGI of the following compound: CSC(=Nc1ccc([N+](=O)[O-])cc1C#N)NC(=O)c1ccccc1
Data returned: > 100 µM

* * *

Reported TGI values for the following compounds.
- Test system: UACC-257 melanoma
- Assay Procedure: NCI tumour cell line growth inhibition, 48 h

Example compounds with recorded TGI:
Compound: COc1ccc(-c2nn3ncccc3c2-c2ccnc(Nc3ccc(F)c(F)c3)n2)cc1
Tgt: UACC-257 melanoma
TGI: > 25 µM
--
Compound: O=[N+]([O-])C(/C(Cl)=C(/Cl)N1CCOCC1)=C1\Nc2ccccc2O1
Tgt: UACC-257 melanoma
TGI: > 100 µM
--
Compound: Cc1cccc(-c2nc(=S)[nH][nH]2)c1
Tgt: UACC-257 melanoma
TGI: > 100 µM
--
Compound: Fc1ccc(/C=C2\COCC3=C2NC(=S)NC3c2ccc(F)cc2)cc1 (stereo unspecified)
Tgt: UACC-257 melanoma
TGI: 34.2 µM
--
Compound: CCOC(=O)c1sc2nc(=S)[nH]c(NC(N)=S)c2c1C
Tgt: UACC-257 melanoma
TGI: 47.3 µM
--
Compound: CC(C)OC(=O)Nc1c([N+](=O)[O-])cc(C(F)(F)F)cc1[N+](=O)[O-]
Tgt: UACC-257 melanoma
TGI: > 100 µM
--
Compound: COC(=O)[C@H](Cc1ccccc1)NC(=O)N(CCN(CCC#N)C(=O)N[C@H](C(=O)OC)C(C)C)c1ccccc1
Tgt: UACC-257 melanoma
TGI: > 100 µM
--
Compound: O=S1(=O)[C@H](c2ccccc2)c2c(-c3ccccc3)sc(-c3ccccc3)c2[C@@H]1c1ccccc1
Tgt: UACC-257 melanoma
TGI: > 100 µM
--
Compound: CN1CCN(c2cc(F)c(NC3=C(Cl)C(=O)c4ncccc4C3=O)c(F)c2)CC1
Tgt: UACC-257 melanoma
TGI: 2.78 µM
--
Compound: Cc1cc(C)c2c(c1)CSCc1cc(C)cc(C)c1-2
Tgt: UACC-257 melanoma
TGI: 74.1 µM

Below: the item to evaluate.
Data request: Reported TGI, compound COC1CCC(O)C(CO)O1 (stereo unspecified) : ____
Data returned: > 100 µM

* * *

- Test system: T-47D breast
- Assay Procedure: NCI tumour cell line growth inhibition, 48 h; in the data active means GI50 below about 0.43 µM; inactive means the rest
Hi! Could you answer with just one of these? true (active), false (inactive)

As a guide, the following entries are already answered.
Smiles Repr: COc1cc(-c2csc(NC(=O)Nc3ccc(Cl)cc3)n2)cc(OC)c1OC
Answer Label: false

Smiles Repr: Oc1ccc(CCNc2nc3ccccc3c3[nH]c4ccccc4c23)cc1O
Answer Label: false

Smiles Repr: CCn1c(-c2nonc2N)nc2cnc(Oc3cccc(NC(=O)c4ccc(OCCN5CCOCC5)cc4)c3)cc21
Answer Label: false

Data request: Please state the recorded outcome for this molecule: C/C(=C1\C(=O)Nc2ccccc21)c1cccc(/C(C)=C2/C(=O)Nc3ccccc32)n1
Data returned: false

Data request: For CCOC(=O)c1sc2nc(=S)[nH]c(NC(N)=S)c2c1C , what call appears in the results of this test?
Data returned: false

Data request: What outcome does the record of this test show for CC(=O)Nc1ccc(CC[C@H]2CCC/C=C/[C@@H]3C[C@H](O)C[C@H]3[C@H](O)/C=C/C(=O)O2)cc1 ?
Data returned: true

Data request: Could you kindly confirm the outcome this assay logged for Clc1ccc2c(NCCCCNc3nc(N4CCOCC4)nc4ccccc34)ccnc2c1 ?
Data returned: false

Data request: Entry COCCn1c(Nc2ccc(C(=O)NO)cc2)nc2ccccc21 : call = ?
Data returned: false

Data request: // param item: CN1CCC2(CC1)C(=O)Nc1cc(NC(=O)c3ccc4c(c3)C[C@@H]3C(C)(C)[C@H](O)[C@H](F)C[C@@]3(C)O4)ccc12 ; yields the recorded call
Data returned: false

Data request: Dear all, I need the recorded test outcome for O=C(O)CN(CCN(CC(=O)O)CC(=O)O)CCN(CC(=O)O)CC(=O)O , thank you.
Data returned: false

Data request: Could you please tell me the result logged for CCCCCCCCCCCC1=NC(C)(C)CN1C(C)C in this assay?
Data returned: false

Data request: Please let me know the test result on file for C=CCn1c(SCC(=O)Nc2ccc(C(=O)/C=C/c3cc(OC)c(OC)c(OC)c3)cc2)nnc1-c1cc(OC)c(OC)c(OC)c1 .
Data returned: false

Data request: // outcome(item) with item = [Cu].c1ccc2c(c1)C1=NC2=NC2=NC(=NC3=NC(=NC4=NC(=N1)c1ccccc14)c1ccccc13)c1ccccc12
Data returned: false

* * *

- Test system: SK-MEL-28 melanoma
- Assay Procedure: NCI tumour cell line growth inhibition, 48 h
Quick reference for TGI among some compounds

These solved cases illustrate the format of a correct answer.
Compound: N#Cc1nc2cc(Cl)c(Cl)cc2nc1-c1ccc(Cl)cc1
Tgt: SK-MEL-28 melanoma
TGI: > 100 µM

Compound: CC(=O)N1N=C(c2ccccc2)NC(=O)C1c1cc(C)c(O)c(C)c1 (centres undefined)
Tgt: SK-MEL-28 melanoma
TGI: > 100 µM

Compound: O=C1CC(Nc2ccccc2)c2c(Cl)sc(Cl)c21 (centres undefined)
Tgt: SK-MEL-28 melanoma
TGI: 3.54 µM

Consider the record given below.
Data request: // TGI lookup, key: O=[N+]([O-])c1ccc(Cl)c(C2CC(c3cccc4ccccc34)=Nc3ccccc3S2=O)c1 (centres undefined)
Data returned: 42.8 µM

Values from PubChem BioAssay (NCI)
